Test: isobaric coefficient of expansion
Conditions: 308.15 K; 15000 kPa; Liquid; Microcalorimeter
Here the recorded isobaric coefficient of expansion is given for each entry.

Worked examples, 5 molecules total:
[[record]]
molecule = "CCn1cc[n+](C)c1.F[B-](F)(F)F [1-ethyl-3-methylimidazolium tetrafluoroborate]"
assaymetric = "isobaric coefficient of expansion"
result = "0.000581 1/K"

[[record]]
molecule = "CCCCCC[n+]1ccn(C)c1.O=S(=O)([N-]S(=O)(=O)C(F)(F)F)C(F)(F)F"
assaymetric = "isobaric coefficient of expansion"
result = "0.000637 1/K"

[[record]]
molecule = "CCCCCCn1cc[n+](C)c1.F[B-](F)(F)F [1-hexyl-3-methylimidazolium tetrafluoroborate]"
assaymetric = "isobaric coefficient of expansion"
result = "0.000589 1/K"

[[record]]
molecule = "CCn1cc[n+](C)c1.O=S(=O)([N-]S(=O)(=O)C(F)(F)F)C(F)(F)F"
assaymetric = "isobaric coefficient of expansion"
result = "0.000637 1/K"

[[record]]
molecule = "CCCC[n+]1cccc(C)c1.F[B-](F)(F)F [1-butyl-3-methylpyridinium tetrafluoroborate]"
assaymetric = "isobaric coefficient of expansion"
result = "0.000576 1/K"


Moving on to the next molecule.
# isobaric coefficient of expansion of CCCCCCCC[n+]1ccn(C)c1.F[B-](F)(F)F [1-methyl-3-octylimidazolium tetrafluoroborate] = 0.000589 1/K

Provenance of the data: the NIST ThermoML archive (doi:10.1021/je900482x)
